ASSAYED_SYSTEM: SETD2 (1347-1711) (Homo sapiens)
Sequence (Q9BYW2 1347-1711): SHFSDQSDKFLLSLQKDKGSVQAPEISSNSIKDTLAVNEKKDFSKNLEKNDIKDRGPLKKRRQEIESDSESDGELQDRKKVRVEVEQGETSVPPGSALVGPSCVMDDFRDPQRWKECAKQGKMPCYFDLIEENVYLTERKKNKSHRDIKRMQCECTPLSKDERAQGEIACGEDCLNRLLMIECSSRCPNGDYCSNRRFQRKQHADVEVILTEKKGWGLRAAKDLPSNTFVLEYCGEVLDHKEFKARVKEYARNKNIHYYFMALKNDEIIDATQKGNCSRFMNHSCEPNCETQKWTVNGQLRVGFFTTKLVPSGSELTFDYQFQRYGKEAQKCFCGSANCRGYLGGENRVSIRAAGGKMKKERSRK
PROPERTY_NAME: pIC50
Interpret pIC50 as the negative base-10 log of the concentration measured in mol/L.

Test system SETD2 (1347-1711) (Homo sapiens); read-out pIC50; what value for Nc1ncnc2c1ncn2[C@@H]1O[C@H](CSCC[C@H](N)C(=O)O)[C@@H](O)[C@H]1O [SAH, S-adenosyl homocysteine, reference compound] ? 5.53

* * *

ASSAYED_SYSTEM: SMYD2 Full-length (Homo sapiens, UniProt Q9NRG4)
Sequence (Q9NRG4 whole entry): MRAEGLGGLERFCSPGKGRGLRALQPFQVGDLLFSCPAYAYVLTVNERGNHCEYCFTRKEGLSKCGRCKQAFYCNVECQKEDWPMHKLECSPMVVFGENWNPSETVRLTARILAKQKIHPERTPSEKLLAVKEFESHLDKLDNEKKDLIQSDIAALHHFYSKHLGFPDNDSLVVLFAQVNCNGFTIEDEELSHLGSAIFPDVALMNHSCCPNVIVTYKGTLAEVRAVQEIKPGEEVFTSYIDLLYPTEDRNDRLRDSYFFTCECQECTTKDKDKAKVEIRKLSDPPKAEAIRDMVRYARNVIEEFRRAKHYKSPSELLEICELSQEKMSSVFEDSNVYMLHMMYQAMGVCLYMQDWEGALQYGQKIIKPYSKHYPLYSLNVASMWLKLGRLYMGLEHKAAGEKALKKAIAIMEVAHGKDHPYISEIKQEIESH
pIC50: −log10 of the molar value.
Form field: pIC50 (one value per entry).

As a guide, the following entries are already answered.
[
  {
    "MOLECULE": "Nc1ncnc2c1ncn2[C@@H]1O[C@H](CSCC[C@H](N)C(=O)O)[C@@H](O)[C@H]1O [SAH, S-adenosyl homocysteine, reference compound]",
    "ASSAYED_SYSTEM": "SMYD2 Full-length (Homo sapiens, UniProt Q9NRG4)",
    "PROPERTY_NAME": "pIC50",
    "READOUT_VALUE": "~4.30"
  },
  {
    "MOLECULE": "CC(C)(C)c1ccc(NC(=O)NCCC[C@H](CN)C[C@H]2O[C@@H](n3cnc4c(N)ncnc43)[C@@H](O)C2O)cc1 (stereo partly drawn)",
    "ASSAYED_SYSTEM": "SMYD2 Full-length (Homo sapiens, UniProt Q9NRG4)",
    "PROPERTY_NAME": "pIC50",
    "READOUT_VALUE": "< 4.00"
  }
]

Query molecule follows.
Data request, read-out pIC50, for CC(C)(C)c1ccc(NC(=O)NCCC[C@H](CNCc2ccccc2)C[C@H]2O[C@@H](n3cnc4c(N)ncnc43)[C@@H](O)C2O)cc1 (stereo partly drawn) < 4.00
